Values compiled from PubChem BioAssay AID1645875.

ASSAY_TARGET: N-terminal Xaa-Pro-Lys N-methyltransferase 1 (Homo sapiens)
PROCEDURE_TEXT: Orthogonal qHTS for Inhibitors of N-terminal methyltransferase 1 (NTMT1): ThioGlo Assay
STUDY_CONDITIONS: NTMT1 SAHH-coupled ThioGlo fluorescence, 30 min; series mostly up to 84.5 µM
Records with an inconclusive call do not appear. Calls of active or inactive are those of the source. Calls come from the whole dose curve; as a rule, active = well fitted inhibition curve with a large enough effect; inconclusive = small, poorly fitted or top-dose-only effect; inactive = no such curve, though single readings can be large or run the other way. Where a SMILES comes first, the peptide text is derived from it. The star is where a group is joined. AFC = O=c1cc(C(F)(F)F)c2ccc(N*)cc2o1
Possible outcomes: active, inactive

COMPOUND	ASSIGNED_LABEL
COc1cc2c(NC3CCN(C4CCCCC4)CC3)nc(N3CCCN(C)CC3)nc2cc1OCCOCCN(C)C	active
COc1cc2c(NC3CCN(CC4CCCCC4)CC3)nc(N3CCCN(C)CC3)nc2cc1OCCOCCN(C)C	inactive
COc1ccc(-c2nnc3n2N=C(c2c(OC)cccc2OC)CS3)cc1OC	inactive
Cc1cc(C)nc(NC(=S)N2CCN(c3cccc(S(C)(=O)=O)c3)CC2)c1	active
Oc1cc2c(c(Cl)c1O)CCNCC2c1ccccc1 (configuration not stated)	active
Nc1ncnc2c1nc(N)n2[C@@H]1O[C@H](CO)[C@@H](O)[C@H]1O	active
Fc1cc(Nc2nc(-c3ccncc3)nc3ccccc23)ccc1N1CCNCC1	active
COc1cccc(C(=O)NCCNc2nc3cc(C)cc(C)c3cc2C#N)c1	active
CCOc1ccc(Nc2nc(-c3c(C)nc4ccccn34)cs2)cc1	active
O=C(Nc1ccccc1)c1ccc(Nc2nnc(-c3ccc(O)cc3)c3ccccc23)cc1	active
CC(=O)N[C@@H](CC(C)C)C(=O)N[C@@H](CCC(=O)O)C(=O)N[C@@H](CCC(=O)O)C(=O)N[C@@H](CC(=O)O)C(=O)Nc1ccc2c(C(F)(F)F)cc(=O)oc2c1 (Ac-LEED-{AFC})	active
COc1cc2c(NC3CCN(C)CC3)nc(N3CCCN(C)CC3)nc2cc1OCCCN1CCCCC1	active
COc1cc2c(NC3CCN(CC4CCCCC4)CC3)nc(N3CCCN(C)CC3)nc2cc1OCCCN1CCCCC1	active
COc1cc2c(NC3CCN(C)CC3)nc(N3CCCN(C)CC3)nc2cc1OCCCCCN	active
Cc1ccc(NC(=O)N2CCN(c3nc(N)nc4sc(-c5cccnc5)nc34)CC2)cc1	active
Nc1ccc(C(=O)Nc2cccc(-c3nc(N4CCOCC4)c4oc5ncccc5c4n3)c2)cn1	active
COc1ccc2nc(-c3cc(OC)c(OC)c(OC)c3)cc(C(=O)NCC(=O)Nc3ccc(C(C)=O)cc3)c2c1	active
